# Tested on: HSkMC (human skeletal muscle cells)
# ASSAY SUMMARY: cytotoxicity call (relative viability < 0.9)
# EXPERIMENTAL SETUP: 10 µM
Hit rate of the full screen: of about 39,000 compounds, about 1,500 (3.8%) were called active. The entries come from a sample that favours actives as a whole.
Can you answer with just one of these options? active, inactive

These recorded examples may help you get a feel for the data.
Incoming: Please state the recorded outcome for this molecule: CC(C)NC(=O)Nc1ccc2c(c1)CC(=O)N([C@H](C)CO)C[C@H](C)[C@H](CN(C)S(=O)(=O)c1ccc(Cl)cc1)O2
Outgoing: inactive

Incoming: Please state the recorded outcome for this molecule: C[C@H]1CN([C@@H](C)CO)C(=O)Cc2cc(NC(=O)Nc3cc(Cl)cc(Cl)c3)ccc2O[C@H]1CN(C)S(=O)(=O)c1ccc(Cl)cc1
Outgoing: active

Incoming: Please state the recorded outcome for this molecule: C=CCC[C@H](Cc1ccc(F)cc1)C(=O)OC[C@@H](Cc1c[nH]c2ccccc12)NC(=O)[C@@H](CC=C)CC(=O)N(CCO)Cc1ccccc1
Outgoing: inactive

Incoming: Please state the recorded outcome for this molecule: C=CCC[C@@H](Cc1ccc(F)cc1)C(=O)OC[C@@H](Cc1c[nH]c2ccccc12)NC(=O)[C@@H](CC=C)CC(=O)N(CCO)Cc1ccccc1
Outgoing: active

Incoming: Please state the recorded outcome for this molecule: C=CCC[C@H](Cc1ccc(F)cc1)C(=O)OC[C@@H](Cc1c[nH]c2ccccc12)NC(=O)[C@@H](CC=C)CC(=O)N[C@@H](CO)Cc1ccccc1
Outgoing: inactive

Incoming: Please state the recorded outcome for this molecule: C=CCC[C@@H](Cc1ccc(F)cc1)C(=O)OC[C@H](Cc1c[nH]c2ccccc12)NC(=O)[C@H](CC=C)CC(=O)N(CCO)Cc1ccccc1
Outgoing: inactive

Next:
Incoming: Please state the recorded outcome for this molecule: C=CCC[C@H](Cc1ccc(F)cc1)C(=O)OC[C@@H](Cc1c[nH]c2ccccc12)NC(=O)[C@H](CC=C)CC(=O)N(CCO)Cc1ccccc1
Outgoing: active

Incoming: Please state the recorded outcome for this molecule: C[C@H]1CN([C@@H](C)CO)C(=O)Cc2cc(NC(=O)Nc3ccc(Cl)c(Cl)c3)ccc2O[C@H]1CN(C)S(=O)(=O)c1ccc(Cl)cc1
Outgoing: active

Incoming: Please state the recorded outcome for this molecule: CC(C)NC(=O)Nc1ccc2c(c1)CC(=O)N([C@@H](C)CO)C[C@H](C)[C@@H](CN(C)S(=O)(=O)c1ccc(Cl)cc1)O2
Outgoing: inactive

Incoming: Please state the recorded outcome for this molecule: C=CCC[C@@H](Cc1ccc(F)cc1)C(=O)OC[C@H](Cc1c[nH]c2ccccc12)NC(=O)[C@@H](CC=C)CC(=O)N(CCO)Cc1ccccc1
Outgoing: inactive

Incoming: Please state the recorded outcome for this molecule: C=CCC[C@@H](Cc1ccc(F)cc1)C(=O)OC[C@@H](Cc1c[nH]c2ccccc12)NC(=O)[C@@H](CC=C)CC(=O)N[C@@H](CO)Cc1ccccc1
Outgoing: inactive

Incoming: Please state the recorded outcome for this molecule: COc1ccc(S(=O)(=O)N(C)C[C@@H]2Oc3ccc(N(C)C)cc3CC(=O)N([C@H](C)CO)C[C@@H]2C)cc1
Outgoing: active

Incoming: Please state the recorded outcome for this molecule: C=CCC[C@H](Cc1ccc(F)cc1)C(=O)OC[C@H](Cc1c[nH]c2ccccc12)NC(=O)[C@@H](CC=C)CC(=O)N(CCO)Cc1ccccc1
Outgoing: active
